- Target or system: truncated form of human NaV 1.8 with full channel activity (Homo sapiens)
- Method notes: E-VIPR Assay Method B for detecting and measuring Nav inhibition (HEK cells, membrane potential FRET dyes, electrical stimulation)
- Type: cell-based
- Test settings: HEK cells expressing human NaV 1.8, Table 20B, read-out: Nav 1.8 MedChem Optical Assay EVIPR Assay Method B HS IC50
pIC50: −log10 of the molar value.
Property name: pIC50

>>> observed_value("Cc1cc(F)ccc1Oc1ccc(C(F)(F)F)cc1C(=O)Nc1ccc(Cl)c(C(N)=O)c1 [Compound 293]")
7.48
>>> observed_value("NC(=O)c1cccc(NC(=O)c2c(Oc3ccc(F)cc3Cl)cccc2C(F)(F)F)c1 [Compound 260]")
6.78
>>> observed_value("NC(=O)c1cccc(NC(=O)c2ccc(C(F)(F)F)cc2Oc2ccc(F)cc2)c1 [Compound 300]")
7.21
>>> observed_value("NC(=O)c1cccc(NC(=O)c2cc(Cl)c(Cl)cc2Oc2ccc(F)cc2)c1 [Compound 268]")
7.85
>>> observed_value("COc1ccc(NC(=O)c2cc(C(F)(F)F)ccc2Oc2ccc(F)cc2C)cc1C(N)=O [Compound 292]")
6.57
>>> observed_value("COc1cc(F)ccc1Oc1cccc(C(F)(F)F)c1C(=O)Nc1cccc(C(N)=O)c1 [Compound 259]")
7.19
>>> observed_value("Cc1cc(Cl)ccc1Oc1ccc(C(F)(F)F)cc1C(=O)Nc1cccc(C(N)=O)c1 [Compound 284]")
7.37
>>> observed_value("NC(=O)c1cccc(NC(=O)c2cc(Cl)c(Cl)cc2Oc2ccc(OC(F)(F)F)cc2)c1 [Compound 272]")
8.10
>>> observed_value("NC(=O)c1cccc(NC(=O)c2cc(C(F)(F)F)ccc2Oc2ccccc2)c1 [Compound 277]")
6.60
>>> observed_value("COc1cc(F)ccc1Oc1cc(C(F)(F)F)ccc1C(=O)Nc1cccc(C(N)=O)c1 [Compound 298]")
7.85
>>> observed_value("COc1cc(Cl)ccc1Oc1cc(C(F)(F)C(F)(F)F)ccc1C(=O)Nc1cccc(C(N)=O)c1 [Compound 247]")
7.48
>>> observed_value("Cc1cc(F)ccc1Oc1ccc(C(F)(F)F)cc1C(=O)Nc1ccc(C)c(C(N)=O)c1 [Compound 294]")
7.43
>>> observed_value("COc1ccc(Oc2cc(C(F)(F)F)ccc2C(=O)Nc2cccc(C(N)=O)c2)c(OC)c1 [Compound 301]")
7.24
>>> observed_value("NC(=O)c1cccc(NC(=O)c2cc(C(F)(F)F)ccc2Oc2ccccc2OC(F)F)c1 [Compound 285]")
7.14
>>> observed_value("COc1ccccc1Oc1ccc(C(F)(F)F)cc1C(=O)Nc1cccc(C(N)=O)c1 [Compound 287]")
7.08
>>> observed_value("CC(C)Oc1ccccc1Oc1ccc(C(F)(F)F)cc1C(=O)Nc1cccc(C(N)=O)c1 [Compound 282]")
6.89
>>> observed_value("NC(=O)c1cc(NC(=O)c2c(Oc3ccc(F)cc3Cl)cccc2C(F)(F)F)ccc1Cl [Compound 254]")
6.59
>>> observed_value("COc1ccc(Oc2cc(C(F)(F)C(F)(F)F)ccc2C(=O)Nc2cccc(C(N)=O)c2)cc1F [Compound 250]")
7.19

====

- Target or system: truncated form of human NaV 1.8 with full channel activity (Homo sapiens, UniProt Q9Y5Y9)
- Sequence (Q9Y5Y9 126-1722 limits assumed): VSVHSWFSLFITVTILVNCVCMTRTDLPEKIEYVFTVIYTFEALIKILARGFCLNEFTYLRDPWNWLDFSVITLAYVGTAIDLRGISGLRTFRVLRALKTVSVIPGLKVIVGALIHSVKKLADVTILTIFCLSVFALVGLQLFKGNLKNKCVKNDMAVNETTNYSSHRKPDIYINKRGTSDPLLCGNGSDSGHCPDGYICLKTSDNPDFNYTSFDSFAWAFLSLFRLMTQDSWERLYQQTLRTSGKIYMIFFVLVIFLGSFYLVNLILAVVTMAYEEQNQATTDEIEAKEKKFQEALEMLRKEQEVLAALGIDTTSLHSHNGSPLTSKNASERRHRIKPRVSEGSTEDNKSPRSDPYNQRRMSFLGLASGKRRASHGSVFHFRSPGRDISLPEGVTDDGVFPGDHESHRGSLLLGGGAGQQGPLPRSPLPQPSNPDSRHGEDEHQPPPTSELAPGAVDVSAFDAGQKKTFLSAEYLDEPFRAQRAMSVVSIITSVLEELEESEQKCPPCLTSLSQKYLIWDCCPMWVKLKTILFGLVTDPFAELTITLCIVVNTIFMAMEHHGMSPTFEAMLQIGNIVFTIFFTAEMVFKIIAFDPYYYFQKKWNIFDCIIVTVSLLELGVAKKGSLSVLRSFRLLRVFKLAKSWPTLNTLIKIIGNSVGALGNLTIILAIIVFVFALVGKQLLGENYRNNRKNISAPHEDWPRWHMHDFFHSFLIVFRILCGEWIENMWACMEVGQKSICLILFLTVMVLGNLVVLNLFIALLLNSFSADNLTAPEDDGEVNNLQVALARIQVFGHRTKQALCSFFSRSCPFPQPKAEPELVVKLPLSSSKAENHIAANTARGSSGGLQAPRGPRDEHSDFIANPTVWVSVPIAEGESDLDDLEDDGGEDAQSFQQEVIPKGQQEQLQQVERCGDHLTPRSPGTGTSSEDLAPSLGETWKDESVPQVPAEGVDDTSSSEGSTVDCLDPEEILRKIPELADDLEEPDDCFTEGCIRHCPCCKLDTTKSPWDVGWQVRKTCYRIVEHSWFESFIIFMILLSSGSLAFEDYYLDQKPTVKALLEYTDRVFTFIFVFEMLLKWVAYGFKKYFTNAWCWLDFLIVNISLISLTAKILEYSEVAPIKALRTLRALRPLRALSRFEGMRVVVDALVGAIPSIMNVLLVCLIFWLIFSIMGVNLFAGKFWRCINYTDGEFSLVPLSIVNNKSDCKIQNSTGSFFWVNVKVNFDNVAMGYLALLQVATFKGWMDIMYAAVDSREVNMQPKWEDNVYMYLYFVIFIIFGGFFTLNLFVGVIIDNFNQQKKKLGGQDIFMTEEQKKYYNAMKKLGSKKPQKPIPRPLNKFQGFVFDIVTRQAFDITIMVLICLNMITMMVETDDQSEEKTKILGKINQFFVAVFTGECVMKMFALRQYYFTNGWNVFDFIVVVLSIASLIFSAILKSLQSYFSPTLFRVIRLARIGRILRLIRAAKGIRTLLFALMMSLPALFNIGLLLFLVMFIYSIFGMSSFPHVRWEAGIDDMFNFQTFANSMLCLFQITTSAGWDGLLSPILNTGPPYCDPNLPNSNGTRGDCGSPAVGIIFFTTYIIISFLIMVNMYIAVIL
- Method notes: E-VIPR Assay Method A for detecting and measuring Nav inhibition (HEK cells, membrane potential FRET dyes, electrical stimulation)
- Assay type: cell-based
- Test settings: HEK cells expressing human NaV 1.8, HS (human serum) in compound loading buffer, 11 point dose response, top dose 3 μM, Table 20A, read-out: Nav 1.8 MedChem Optical Assay EVIPR Assay Method A HS IC50
Each entry below lists one item and its recorded IC50 value.
Property name: IC50 (nM)

>>> observed_value("[2H]C([2H])([2H])Oc1cc(OC(F)(F)F)ccc1Oc1ccc(OC(F)F)c(F)c1C(=O)Nc1ccnc(C(N)=O)c1")
17
>>> observed_value("[2H]C([2H])([2H])Oc1cc(OC(F)(F)F)ccc1Oc1ccc(C(F)(F)F)c(F)c1C(=O)Nc1ccc(C(N)=O)nc1C")
160
>>> observed_value("NC(=O)c1cc(NC(=O)c2c(Oc3ccc(OC(F)F)cc3F)ccc(C(F)(F)F)c2F)ccn1")
140
>>> observed_value("COc1cc(OC(F)(F)F)ccc1Oc1ccc(C(F)(F)F)c(OC)c1C(=O)Nc1cc(C(N)=O)ncc1F")
18
